# assay.remarks: CREB reporter modulators without forskolin, primary screen, cell-based, PC12, CRE-LacZ reporter, unstimulated (AID 1145)
# condition.context: no forskolin, luminescence, 4.5 h, called active from +8 up or from −8 down
Active and inactive are the calls of the source.
Your answer must be one of the following: t (active), f (inactive)

Please review the following examples before continuing.
CC(=O)NCCCC[C@@H]1NC(=O)[C@@H]2C[C@H](C(=O)NCc3ccc(F)cc3)[C@H](c3cccc(OCCO)c3)N2C1=O    f
COCCOC(=O)N1C(=O)[C@@]2(c3cc(C#CC4=CCCCC4)ccc31)[C@H](c1ccc(O)cc1)N1[C@H](c3ccccc3)[C@H](c3ccccc3)OC(=O)[C@H]1[C@@H]2C(=O)N1CCCCCCC1    f

QUERY: Hi, sorry to bother you, what did the test record for CCN1C(C)=C(C(=O)OC)[C@@H](c2ccccc2)N2C(=O)[C@](O)(C(=O)OC)[C@@H](c3ccccc3)C(C(=O)c3ccccc3)=C12 ?
RESULT: f
